Test system: ApoE
experiment: ApoE gene expression analysis by qRT-PCR in MeWo cancer cells
Assay type: cell-based
conditions.used: 48 h
pEC50: −log10 of the molar value.
measured.endpoint: pEC50

>>> recorded_value("CS(=O)(=O)N1CCCC(OCCCN(Cc2cccc(C(F)(F)F)c2Cl)CC(c2ccccc2)c2ccccc2)C1 (stereo not drawn)")
"> 6.52"
>>> recorded_value("CS(=O)(=O)N1CCC[C@@H](OCCCN(Cc2cccc(C(F)(F)F)c2Cl)CC(c2ccccc2)c2ccccc2)C1")
"> 5.52"

Then this compound:
Item CS(=O)(=O)N1CCC[C@H](OCCCN(Cc2cccc(C(F)(F)F)c2Cl)CC(c2ccccc2)c2ccccc2)C1 : provide pEC50 > 5.52

###

Test system: Cancer cells (MeWo)
experiment: Matrigel invasion assay
Assay type: cell-based
conditions.used: 1 μM drug, invasion 24 h
Reported % of Cells Migrated Compared to Control is given for each of the following compounds.

>>> recorded_value("C[C@H](CCO[C@H]1CCCN(S(C)(=O)=O)C1)N(Cc1cccc(C(F)(F)F)c1Cl)CC(c1ccccc1)c1ccccc1")
"<70%"

Fill in reported % of Cells Migrated Compared to Control for this entry: CS(=O)(=O)c1cc(OCCCN(Cc2cccc(C(F)(F)F)c2Cl)CC(c2ccccc2)c2ccccc2)cc(F)c1CO <50%

Answer with the recorded % of Cells Migrated Compared to Control of CS(=O)(=O)N1CCCC(OCCCN(Cc2cccc(C(F)(F)F)c2Cl)CC(c2ccccc2)c2ccccc2)C1 (stereo not shown) only. <50%

Dear colleague, please send me the reported % of Cells Migrated Compared to Control for O=C(O)Cc1cccc(OCCCN(Cc2cccc(C(F)(F)F)c2Cl)CC(c2ccccc2)c2ccccc2)c1 [GW3965, reference compound] when you can. <70%

Give a short answer stating reported % of Cells Migrated Compared to Control for C[C@H](CCOc1cc(F)c(CO)c(S(C)(=O)=O)c1)N(Cc1cccc(C(F)(F)F)c1Cl)CC(c1ccccc1)c1ccccc1 . <50%

Give the reported value of % of Cells Migrated Compared to Control for this record: CC(CCOc1cccc(CC(=O)O)c1)N(Cc1cccc(C(F)(F)F)c1Cl)CC(c1ccccc1)c1ccccc1 (stereo not shown) [SB742881, reference compound] <70%

Item O=C(Cc1cccc(OCCCN(Cc2cccc(C(F)(F)F)c2Cl)CC(c2ccccc2)c2ccccc2)c1)NO : provide % of Cells Migrated Compared to Control <95%
